System: HCI-025 (organoid from a breast cancer xenograft)
EXPERIMENT_DESCRIPTION: CTG-3D luminescence at 96 h relative to day-0 seeding control (ratio to day 0); higher = more growth / less cytotoxicity; PDxO 3D drug screen (set 2), 96 h, CTG-3D normalised to day-0 seeding control.
SETUP_CONDITIONS: 0.00025 µM; days in culture: 175
MEASURED_ENDPOINT: CTG-3D luminescence at 96 h
Lab note: jot the number down without any unit.

Q: Recorded CTG-3D luminescence at 96 h for CS(=O)(=O)CCNCc1ccc(-c2ccc3ncnc(Nc4ccc(OCc5cccc(F)c5)c(Cl)c4)c3c2)o1 [lapatinib] , please?
Ans: 2.05

Q: Also, CC(=O)c1c(C)c2cnc(Nc3ccc(N4CCNCC4)cn3)nc2n(C2CCCC2)c1=O [palbociclib] please.
Ans: 2.51

Q: Also, CCOc1ccn(-c2ccc(F)cc2)c(=O)c1C(=O)Nc1ccc(Oc2ccnc(N)c2Cl)c(F)c1 [ASLAN002] please.
Ans: 1.97

Q: Also, COc1cccc2c1C(=O)c1c(O)c3c(c(O)c1C2=O)C[C@@](O)(C(=O)CO)C[C@@H]3O[C@H]1C[C@H](N)[C@@H](O)[C@H](C)O1 [epirubicin] please.
Ans: 1.16
